melting point listing for selected molecules.

Molecule: Cc1cc(Oc2ccc(NC(=O)N3CCc4ccccc4CC3)cn2)ccc1Cl
Experimental Result: 171 to 173 °C
--
Molecule: Cc1ncccc1Oc1ccc(NC(=O)N2CCc3ccc(-n4c(C)ccc4C)cc3CC2)cn1
Experimental Result: 101 °C (dec.)
--
Molecule: O=C(Nc1cccnc1Cl)N1CCc2ccccc2CC1
Experimental Result: 120 to 122 °C

INPUT: Query melting point for `O=C(Nc1cccnc1)N1CCc2ccccc2CC1`
OUTPUT: 144 to 146 °C

INPUT: Query melting point for O=C(NC1CCCNC1)N1CCc2ccccc2CC1 (centres unmarked)
OUTPUT: 214 to 216 °C

Entry source: patent US6861420B2
